# assayedSystem: KRAS G12D (Homo sapiens, UniProt P01116+P62937, G12D)
# Sequence (P01116 1-169 isoform P01116-2 G12D limits assumed): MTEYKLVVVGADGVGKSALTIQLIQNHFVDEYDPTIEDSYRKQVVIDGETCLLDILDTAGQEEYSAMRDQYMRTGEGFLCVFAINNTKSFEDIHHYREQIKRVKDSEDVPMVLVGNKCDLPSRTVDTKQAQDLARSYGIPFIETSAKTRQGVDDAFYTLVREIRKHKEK
# Sequence (P62937 whole entry): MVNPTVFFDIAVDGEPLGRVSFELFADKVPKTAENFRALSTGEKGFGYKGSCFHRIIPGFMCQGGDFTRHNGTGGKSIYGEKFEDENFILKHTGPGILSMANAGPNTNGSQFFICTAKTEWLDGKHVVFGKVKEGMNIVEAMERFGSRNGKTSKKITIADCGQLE
# testMethodNotes: Ras-Raf disruption / FRET / MOA assay (BRAF RBD)
# Assay type: biochemical
# statedConditions: KRAS G12D FRET data IC50, Ras-Raf disruption, with Cyclophilin A
pIC50: −log10 of the molar value.
Catalogue of pIC50 readings, one per entry.

{"compound": "CCn1c(-c2cccnc2[C@H](C)OC)c2c3cc(ccc31)-c1cc(O)cc(c1)C[C@H](NC(=O)[C@H](C1CCCC1)N(C)C(=O)CN(C)C(=O)[C@@H]1N[C@@H]1C1CC1)C(=O)N1CCC[C@H](N1)C(=O)OCC(C)(C)C2 [Example 170]", "pIC50": "7.00 to 8.00"}
{"compound": "CCn1c(-c2cccnc2[C@H](C)OC)c2c3cc(ccc31)-c1cc(O)cc(c1)C[C@H](NC(=O)[C@H](C(C)C)N(C)C(=O)CN(C)C(=O)[C@@]1(C)CN1)C(=O)N1CCC[C@H](N1)C(=O)OCC(C)(C)C2 [Example 256]", "pIC50": "7.00 to 8.00"}
{"compound": "CCn1c(-c2cccnc2[C@H](C)OC)c2c3cc(ccc31)-c1cc(O)cc(c1)C[C@H](NC(=O)[C@H](C(C)C)N(C)C(=O)CN(C)C(=O)[C@H]1N[C@H]1C1COC1)C(=O)N1CCC[C@H](N1)C(=O)OCC(C)(C)C2 [Example 282]", "pIC50": "7.00 to 8.00"}
{"compound": "CCn1c(-c2cccnc2[C@H](C)OC)c2c3cc(ccc31)-c1cc(O)cc(c1)C[C@H](NC(=O)[C@H](C(C)C)N(C)C(=O)[C@H]1CC[C@@H](C)N1C(=O)[C@H]1CN1)C(=O)N1CCC[C@H](N1)C(=O)OCC(C)(C)C2 [Example 154]", "pIC50": "5.00 to 6.00"}
